study-system: T1, recombinant human PD-L1 (amino acids 19-239 of NP_054862.1) expressed with a C-terminal mouse IgG2a Fc tag (human)
T1 construct: called dimeric; also called hPD-L1-mFc
T1 sequence (chain, as listed by the source limits assumed): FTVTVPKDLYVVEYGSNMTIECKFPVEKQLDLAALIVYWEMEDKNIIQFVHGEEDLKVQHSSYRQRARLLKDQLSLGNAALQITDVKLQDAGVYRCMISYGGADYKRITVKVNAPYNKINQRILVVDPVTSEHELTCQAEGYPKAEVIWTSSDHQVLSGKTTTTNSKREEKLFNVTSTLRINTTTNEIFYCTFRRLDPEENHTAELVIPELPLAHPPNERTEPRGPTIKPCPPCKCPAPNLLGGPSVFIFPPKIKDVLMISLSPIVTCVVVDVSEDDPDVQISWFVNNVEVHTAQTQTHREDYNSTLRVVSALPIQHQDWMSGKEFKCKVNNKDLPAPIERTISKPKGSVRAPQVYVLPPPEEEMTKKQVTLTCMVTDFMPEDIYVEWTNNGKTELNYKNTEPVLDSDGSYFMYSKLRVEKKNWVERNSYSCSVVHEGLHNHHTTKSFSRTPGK
run-description: competition ELISA: 8 nM hPD-L1-mFc binding to coated hB7-1-hFc-6His
readout-name: % maximum blocking (%)
Quick reminder: number only, in %, skip the unit.

Note to self: % maximum blocking recorded for H1H9329P (antibody, V domains shown, human IgG1 Fc (H1H prefix)) VH: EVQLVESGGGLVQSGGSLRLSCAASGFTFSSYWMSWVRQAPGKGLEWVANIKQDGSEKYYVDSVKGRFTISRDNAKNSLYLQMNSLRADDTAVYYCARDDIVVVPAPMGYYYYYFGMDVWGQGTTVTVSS VL: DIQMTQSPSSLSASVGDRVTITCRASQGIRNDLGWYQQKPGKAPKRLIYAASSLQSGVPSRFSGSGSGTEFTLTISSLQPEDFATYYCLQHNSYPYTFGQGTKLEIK was 100

% maximum blocking reported for this binder H2aM8323N (antibody, V domains shown, human variable regions, mouse IgG2 Fc (H2aM prefix); also called H2M8323N) VH: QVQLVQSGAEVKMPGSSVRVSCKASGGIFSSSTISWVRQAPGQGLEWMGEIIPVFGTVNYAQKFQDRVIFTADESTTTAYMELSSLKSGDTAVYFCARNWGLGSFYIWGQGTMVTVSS VL: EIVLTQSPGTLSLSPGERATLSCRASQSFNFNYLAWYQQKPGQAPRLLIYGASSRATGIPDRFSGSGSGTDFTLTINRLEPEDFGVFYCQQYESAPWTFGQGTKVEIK : 99

% maximum blocking for H1H9336P (antibody, V domains shown, human IgG1 Fc (H1H prefix)) VH: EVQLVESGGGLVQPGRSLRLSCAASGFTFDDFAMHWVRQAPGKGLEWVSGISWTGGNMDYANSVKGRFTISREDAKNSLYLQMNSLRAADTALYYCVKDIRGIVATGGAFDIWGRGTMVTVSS VL: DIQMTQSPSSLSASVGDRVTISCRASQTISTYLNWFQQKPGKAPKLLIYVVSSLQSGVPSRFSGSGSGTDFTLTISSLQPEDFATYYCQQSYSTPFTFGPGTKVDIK is 99
